Values were extracted from ChEMBL document CHEMBL1121703.

# experiment.description: Inhibition of binding of 5 nM [3H]dopamine to dopamine receptor by 50%
# Design: species or system Bos taurus
Sorting guide: entries reporting IC50 beneath 8 µM go in the True pile, the rest go in the False pile.

Query: Determine whether this compound shows IC50 lower than 8 µM (ties excluded): COC(=N)N1CCc2ccc3sc4ccccc4c3c2C1
Reply: False

Query: Strictly below 8 µM in IC50? O=C(CCCN1CCC(O)(c2ccc(Cl)cc2)CC1)c1ccc(F)cc1 [HALOPERIDOL]
Reply: True

Query: Regarding CN1CCc2cccc(-c3ccccc3)c2C1 , kindly confirm whether its IC50 is beneath 8 µM.
Reply: False

Query: Decide: IC50 of Cl.c1ccc(CN2CCc3ccc4sc5ccccc5c4c3C2)cc1 strictly below 8 µM?
Reply: False

Query: Answer whether the compound N#CN1CCc2ccc3sc4ccccc4c3c2C1 has IC50 strictly less than 8 µM
Reply: False

Query: is_below(IC50, 8 µM) for [O-][N+]1(Cc2ccccc2)CCc2ccc3sc4ccccc4c3c2C1 (stereo not drawn) ?
Reply: False

Query: Field: below-cutoff. Rule: recorded IC50 strictly less than 8 µM. Subject: CN1CCc2ccc3sc4ccccc4c3c2C1.Cl
Reply: True
